Target: T1, PARP4 BRCT F39Q (human, UniProt Q9UKK3 1-100, F39Q)
T1 sequence: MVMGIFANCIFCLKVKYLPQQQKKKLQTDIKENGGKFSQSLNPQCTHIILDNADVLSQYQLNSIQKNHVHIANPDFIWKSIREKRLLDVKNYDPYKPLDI
Assay: FP; 3 nM probe; FP: 50 mM Tris pH 7.5, 50 mM NaCl, 1 mM MgCl2, 0.05% NP40, 2 mM DTT, 5% glycerol, 25 ug/ml BSA, room temp 30 min; EMSA: 50 mM Tris pH 7.5, 50 mM NaCl, 4% Ficoll PM400, 0.05% NP40, 2 mM DTT, 0-18 uM protein, room temp 30 min, gel at 4 C
Conditions: protein: recombinant; tags: N-terminal His-SUMO removed by TEV; label: 5'-6-FAM; predicted intramolecular fold
assay.readout: Kd
Form entry: enter the amount, then its unit.

Request: State, in one line, measured Kd of vtRNA1-3 (structured_RNA) RNA: GGCUGGCUUUAGCUCAGCGGUUACUUCGCGUGUCAUCAAACCACCUCUCUGGGUUGUUCGAGACCCGCGGGCGCUCUCCAGCCCUCUU
Response: 35 µM
